- Assay Target: human JAK2 catalytic kinase (JH1) domain (Homo sapiens (Human))
- Sequence (O60674 849-1124): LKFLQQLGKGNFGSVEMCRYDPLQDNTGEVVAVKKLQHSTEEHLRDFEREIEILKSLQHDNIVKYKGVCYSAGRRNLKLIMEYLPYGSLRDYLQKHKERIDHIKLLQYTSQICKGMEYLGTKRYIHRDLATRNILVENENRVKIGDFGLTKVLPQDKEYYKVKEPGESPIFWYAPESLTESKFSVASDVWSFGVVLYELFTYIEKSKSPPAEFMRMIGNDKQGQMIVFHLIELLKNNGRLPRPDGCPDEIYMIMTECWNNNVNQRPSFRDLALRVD
- Assay Overview: ADP-Glo Kinase Assay, recombinant JAK2 catalytic kinase (JH1) domain
- Assay type: biochemical
- Conditions: recombinant JH1 domain 0.2 nM, 15 μM ATP, JAK3-974 peptide, mean, read-out: JAK2 biochem IC50 (nM) Mean
- Protocol: Compounds of the disclosure were assessed for their ability to inhibit TYK2, JAK1, JAK2, and JAK3 activity. The inhibitory properties of the compounds of the disclosure described herein can be evidenced by testing in any one of the following protocols. The kinase activity of recombinantly generated catalytic kinase (also known as JH1) domain of human JAK1, JAK2, JAK3 and TYK2 were evaluated in a plate-based assay using the ADP-Glo™ Kinase Assay platform. […]
Parameter: IC50 (nM)
State just the number; it will be interpreted in nM.

-- ask API: value(readout= IC50, system= human JAK2 catalytic kinase (JH1) domain (Homo sapiens (Human)), query= O=C([C@@H]1C[C@H]1F)N1C2CCC1CN(c1ccnn3cc(-c4ccc(C(F)(F)F)nc4)cc13)C2 )
-- reply 64

-- ask API: value(readout= IC50, system= human JAK2 catalytic kinase (JH1) domain (Homo sapiens (Human)), query= N#Cc1cc(-c2cc3c(N4CC5CCC(C4)N5C(=O)[C@@H]4C[C@H]4F)ccnn3c2)ccn1 )
-- reply 47

-- ask API: value(readout= IC50, system= human JAK2 catalytic kinase (JH1) domain (Homo sapiens (Human)), query= Cn1cc(-c2cc3c(N4CC5CCC(C4)N5C(=O)[C@H]4C[C@@H]4C#N)ncnn3c2)cn1 (racemic) )
-- reply 3610

-- ask API: value(readout= IC50, system= human JAK2 catalytic kinase (JH1) domain (Homo sapiens (Human)), query= O=C([C@@H]1C[C@H]1F)N1C2CCC1CN(c1ncnc3[nH]c(-c4ccnnc4)cc13)C2 )
-- reply 598

-- ask API: value(readout= IC50, system= human JAK2 catalytic kinase (JH1) domain (Homo sapiens (Human)), query= O=C(C1CC1)N1C2CCC1CN(c1ncnn3cc(-c4cnn(C5CCOCC5)c4)cc13)C2 )
-- reply 1520

-- ask API: value(readout= IC50, system= human JAK2 catalytic kinase (JH1) domain (Homo sapiens (Human)), query= Cn1cc(-c2cc3c(N4CC5CCC(C4)N5C(=O)[C@@H]4C[C@H]4C#N)ncnn3c2)cn1 (single isomer, unassigned) )
-- reply 1910

-- ask API: value(readout= IC50, system= human JAK2 catalytic kinase (JH1) domain (Homo sapiens (Human)), query= Cn1cc(-c2cc3c(N4CC5CCC(C4)N5C(=O)[C@H]4CC4(F)F)ncnn3c2)cn1 )
-- reply 1220

-- ask API: value(readout= IC50, system= human JAK2 catalytic kinase (JH1) domain (Homo sapiens (Human)), query= O=C([C@@H]1C[C@H]1F)N1C2CCC1CN(c1ccnn3cc(-c4ccnc(N5CCC5)c4)cc13)C2 )
-- reply 215

-- ask API: value(readout= IC50, system= human JAK2 catalytic kinase (JH1) domain (Homo sapiens (Human)), query= Cc1cnc(-c2cc3c(N4CC5CCC(C4)N5C(=O)[C@@H]4C[C@H]4F)ccnn3c2)cn1 )
-- reply 672

-- ask API: value(readout= IC50, system= human JAK2 catalytic kinase (JH1) domain (Homo sapiens (Human)), query= Cc1ccc(-c2nc3c(N4CC5CCC(C4)N5C(=O)[C@@H]4C[C@H]4F)ccnc3[nH]2)cn1 )
-- reply 22

Continuing:
-- ask API: value(readout= IC50, system= human JAK2 catalytic kinase (JH1) domain (Homo sapiens (Human)), query= Cn1cc(-c2cc3c(N4CC5CCC(C4)N5C(=O)CC#N)ccnn3c2)cn1 )
-- reply 117

-- ask API: value(readout= IC50, system= human JAK2 catalytic kinase (JH1) domain (Homo sapiens (Human)), query= Cn1cc(-c2cc3c(N4CC5CCC(C4)N5C(=O)[C@@H]4CC4(F)F)ccnn3c2)cn1 )
-- reply 32

-- ask API: value(readout= IC50, system= human JAK2 catalytic kinase (JH1) domain (Homo sapiens (Human)), query= O=C([C@@H]1C[C@H]1F)N1C2CCC1CN(c1ncnn3cc(-c4cnn(C(F)F)c4)cc13)C2 [Example 76] )
-- reply 850

-- ask API: value(readout= IC50, system= human JAK2 catalytic kinase (JH1) domain (Homo sapiens (Human)), query= O=C([C@@H]1C[C@H]1F)N1C2CCC1CN(c1ccnc3[nH]c(C4CC4)nc13)C2 )
-- reply 772

-- ask API: value(readout= IC50, system= human JAK2 catalytic kinase (JH1) domain (Homo sapiens (Human)), query= O=C([C@@H]1C[C@H]1F)N1C2CCC1CN(c1ccnn3cc(-c4ccc(F)nc4)cc13)C2 )
-- reply 49

-- ask API: value(readout= IC50, system= human JAK2 catalytic kinase (JH1) domain (Homo sapiens (Human)), query= Cn1cc(-c2cc3c(N4CC5CCC(C4)N5C(=O)[C@@H]4C[C@H]4F)ccnn3c2)c(F)n1 )
-- reply 28
